- TEST_NAME: Solubility at pH 6.8
- Assay type: physicochemical
- CONDITION_DESCRIPTION: pH 6.8, aqueous buffer, thermodynamic from solid; read-out: solubility
Please go through the items and note down their solubility.
Give bare numbers, in µg/mL.

# example entries with known answers
>>> reported_result("COc1ncc(-c2ccc3ncc4c(c3c2)n(-c2cn(C)nc2C)c(=O)n4C)cc1C#N [Example 132]")
17
>>> reported_result("CCCOc1ccc(-c2ccc3ncc4c(c3c2)n(-c2cn(C)nc2C)c(=O)n4C)cn1 [Example 55]")
3
>>> reported_result("CCOc1ccc(-c2ccc3ncc4c(c3c2)n(-c2cn(CCOC)nc2C)c(=O)n4C)cn1 [Example 131]")
4
>>> reported_result("Cc1nn(C)c(C)c1-n1c(=O)n(C)c2cnc3ccc(-c4cnc(N)nc4)cc3c21 [Example 81.2]")
133

For every item in the list below, what is its measured solubility?
1. Cc1nn(CC(=O)N(C)C)cc1-n1c(=O)n(C)c2cnc3ccc(-c4ccc(-n5cccn5)cc4)cc3c21 [Example 51.2]
2. CCN1C(=O)OCc2ncc(-c3ccc4ncc5c(c4c3)n(-c3cn(C)nc3C)c(=O)n5C)cc21 [Example 237]
3. Cc1nn(CC(=O)N2CCC2)cc1-n1c(=O)n(C)c2cnc3ccc(-c4cnc(N5CCCC5)nc4)cc3c21 [Example 247.2]
4. CCOc1cncc(-c2ccc3ncc4c(c3c2)n(-c2cn(C)nc2Cl)c(=O)n4C)c1 [Example 56.4]
5. CNc1ncc(-c2ccc3ncc4c(c3c2)n(-c2cn(C(C)C)nc2C)c(=O)n4C)cc1CO [Example 171]
6. Cc1nn(C)cc1-n1c(=O)n(C)c2cnc3ccc(-c4ccnc(N(C)C(C)C)c4)cc3c21 [Example 130]
7. CCn1cc(-n2c(=O)n(C)c3cnc4ccc(-c5ccc(OCCOC)c(OC)c5)cc4c32)c(C)n1 [Example 30.2]
8. CCN(C)C(=O)Cn1cc(-n2c(=O)n(C)c3cnc4ccc(-c5ccccc5)cc4c32)c(C)n1 [Example 135]

Response:
1: 4; 2: 14; 3: 56; 4: 14; 5: 5; 6: 74; 7: 9; 8: 164

Return reported solubility values for all items listed beneath this line.
1. CCOc1ccc(-c2ccc3ncc4c(c3c2)n(-c2cn(CC(=O)N(C)CC)nc2C)c(=O)n4C)cn1 [Example 136]
2. CCn1cc(-n2c(=O)n(C)c3cnc4ccc(-c5ccc(COC)nc5)cc4c32)c(C)n1 [Example 104]

Response:
1. 141
2. 4

----------
- Tested on: PKB Ser473 phosphorylation in Rat1-myr-HA-p110 alpha cells
- TEST_NAME: Reverse protein array assay, PKB Ser473 phosphorylation in Rat1-myr-p110 alpha cells
- Type: cell-based
- CONDITION_DESCRIPTION: 0.5 h, pAkt Ser473, 30 minutes compound incubation, read-out: p-PKB IC50
pIC50: −log10 of the molar value.
Label Not met if pIC50 falls below 7; label Met in every other case.

Known results for compounds:
>>> classification("Cn1cc(-n2c(=O)n(C)c3cnc4ccc(-c5cnc(N)c(CO)c5)cc4c32)c(Cl)n1")
"Met"
>>> classification("CCNc1cc(-c2ccc3ncc4c(c3c2)n(-c2cn(CC)nc2C)c(=O)n4C)cnc1C")
"Met"
>>> classification("Cc1nn(C)cc1-n1c(=O)n(C)c2cnc3ccc(-c4cccc(OC(C)C)c4F)cc3c21")
"Not met"
>>> classification("CCn1cc(-n2c(=O)n(C)c3cnc4ccc(-c5ccc(NC)nc5)cc4c32)c(C)n1")
"Met"
>>> classification("COCc1ccc(-c2ccc3ncc4c(c3c2)n(-c2cn(C)nc2Cl)c(=O)n4C)cn1")
"Met"
>>> classification("CNc1ncc(-c2ccc3ncc4c(c3c2)n(-c2cn(C(C)C)nc2C)c(=O)n4C)cc1F")
"Met"

Continue with the next compound.
Request: Hello, I need to know if Cc1nn(C)cc1-n1c(=O)n(C)c2cnc3ccc(-c4cncc(C(C)(C)O)c4)cc3c21 has measured pIC50 not below 7. Thanks!
Response: Met

Data origin: patent US20140005163A1
